Assay: protein stability index of a GFP-peptide fusion (GPS, HEK-293T) (PSI 1-6); higher = more stable;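 note: 24-mer peptide tiles fused after GFP, lentivirally expressed, FACS-sorted into six equal bins by GFP/DsRed ratio, decoded by Illumina sequencing, PSI is the read-weighted mean bin number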
Settings: treatment: DMSO; c terminus: a fixed tail appended
Readings of protein stability index for the listed sequences
Write no unit; give the number alone.

Worked cases, answers included:
LKNIRHRPGGGRVKIESVKLDFKE [MAP2] ... 3.22
EPDALDDSLTSLQWLQEFSILNAK [FOXJ1] ... 3.75

What does the data say about its protein stability index? Entry: IWKLNLQTFQWVKLPATMPEPVYF [KLHDC10] 2.82

Note, next up: ELPLLTPCSKAVMSQALKATFSGF [ETS2] 2.62

Note, next up: SVVCRELGFGSAKEAVTGSRLGQG [LOXL2] 3.69

---

Test: protein stability index of a GFP-peptide fusion (GPS, HEK-293T) (PSI 1-6); higher = more stable
Conditions: treatment: DMSO; c terminus: a fixed tail appended
Rule: protein stability index of 3 or more gives t; anything lower gives f.

RGSVARPTQGPETPRSPEGTTEAA [PXN] ... t

Please tell me: is the sequence VTKVTAVDADAGHNAWLSYSLLPQ [PCDHGC5] at or over 3 in terms of protein stability index? f

Note, next up: NITRLQLETEIEALKEELLFMKKN [KRT18] f

Note, next up: LSDKSCQSFISWTGDGWEFKLADP [ETS2] f

Note, next up: RFEQEAVAVDSNLRVRELQRKVDG [CCDC89] t

Note, next up: VCRIGDWLQERYEIVGNLGEGTFG [CLK3] f

Note, next up: GLPGSGKTTLARQLQHDFPRALIF [N4BP2L1] f

Note, next up: ERLKVMCEEALCSNLSVENVADTL [SPOPL] t

Note, next up: MEGLEENGGVVQVGELLPCKICGR [ZC2HC1A] t

Note, next up: SRGGTRGWLPSHEGHLDDGGYTPD [RBMY1A1] t

Note, next up: QQCMLEILDTAGTEQFTAMRDLYM [RAP1B] f

Note, next up: LLQKYNMQFLIRSHECKPEGYEFC [PPEF2] f

Note, next up: DNSPTSNSLEGGTDATAFWWGEWT [ADAMTSL2] t

Note, next up: RQAIFPDTWTLTEEHGLQQERPRP [PXN] t

Note, next up: PPPAYEPPAPAPLPPPSAPSLQPS [SCAMP3] t

Note, next up: NQAAIMELDDTLKYSFLQFDPAPR [PPP2CA] t

Note, next up: ALGIYGAPYAAAAAAQSYPGYLPY [IRX6] f

Note, next up: PRPPSNPPARGTLKTSNLPEELRK [TRAF3IP2] t

Note, next up: EEDLQSQSETQGLEGAQAPLAVEE [MAGEA10] t

Note, next up: VCVIAIGVVQALIVGYAFHFPHLL [TMEM175] t

---

Assay: protein stability index of a GFP-peptide fusion (GPS, HEK-293T) (PSI 1-6); higher = more stable
Settings: treatment: MLN4924 1 uM, 8 h; c terminus: a fixed tail appended
Readings of protein stability index for the listed sequences
Write no unit; give the number alone.

Worked cases, answers included:
PVYVSCIAQDTCTTTDHSSNPGPV [SPAG8] ... 3.9
DPQSGELPSERWNPTQNVRTILLS [CDC34] ... 3.62
QQRSKDLESRQRSLEQANRSLQLR [TFE3] ... 4.66
LPGPKGDDGKLGATGPMGMRGFKG [SCARA5] ... 4.48
RTERVEQAFRAIDRGDYYLEGYRD [PCMTD1] ... 3.82

What does the data say about its protein stability index? Entry: IMAFFLCLGLALGAVFSFLFRAIV [SLC29A1] 2.19

Note, next up: SPNTPQPVPEQSALCQGLYFHINQ [FAM104A] 3.16

Note, next up: VQAIFSGDPEEIRMLIHKTEDVNT [ANKRD44] 3.58

---

Assay: protein stability index of a GFP-peptide fusion (GPS, HEK-293T) (PSI 1-6); higher = more stable
Conditions: treatment: DMSO; c terminus: a fixed tail appended
Metric name: protein stability index
Write no unit; give the number alone.

Worked cases, answers included:
GYVSQQGGQRSTPLIIAARNGHAK [FEM1B] ... 3.74
IVGFGLYGSIHGPTDYQVNIQIIE [BTBD1] ... 2.63
VSLLENNIYVHDLLTFQQITTVSK [VPS39] ... 2.97

What does the data say about its protein stability index? Entry: HQQNKIKDLQKEQKTLQVKCQHYK [CEP70] 4.11

Note, next up: PYREDEEGAFGEHGSQGTYSNTKE [MAP2] 5.66

---

Readings of protein stability index for the listed sequences
Test: protein stability index of a GFP-peptide fusion (GPS, HEK-293T) (PSI 1-6); higher = more stable
Details: treatment: DMSO; c terminus: a fixed tail appended

Worked cases, answers included:
SNKVQDSAPVETPRGKPPLNTRSQ [HMOX1] ... 5.21
GGWNFSTQKFTDMVATANNRQTFV [CHIT1] ... 2.55
LASGRIILILEGGYNLTSISESMA [HDAC6] ... 2.63
FSVRPGTEATISIREDEVHRLGSP [SCNN1D] ... 4.16
APSLSGKGNPEEEDVDTSQVLYEW [CTNNB1] ... 5.14
VFDLPESLGGIRACTLTVFPPEET [KLHL13] ... 3.33
FHGKYSTINPLWHIRHLGWNPDAR [GLT8D2] ... 2.57
DSGQNAWLSYRLLKASEPGLFAVG [PCDHGA10] ... 2.14
QVGAKGDTANEIGQVLHFENVKDV [SERPINB5] ... 4.94
LKVVHELPACTLCAGPLEDAVTIP [TRIM15] ... 2.76

What does the data say about its protein stability index? Entry: PPHICWDETHFGKMGSYYINRTFF [POMT2] 2.1

Note, next up: NYVAKNFAQALGCVLYACFILGRL [SOAT2] 3.46

---

Readings of protein stability index for the listed sequences
Test: protein stability index of a GFP-peptide fusion (GPS, HEK-293T) (PSI 1-6); higher = more stable
Details: treatment: MLN4924 1 uM, 8 h; c terminus: a fixed tail appended
Write no unit; give the number alone.

DGLLGDNQIMPKTGFLIIILAIIA [MAGEA6] ... 2.12
IPSWQIRTVKLIRYVSNWDFFIVG [PKD2L1] ... 2.93

What does the data say about its protein stability index? Entry: HKKDCAREKPFKCQECGKTFRVSS [ZNF75A] 3.65

Note, next up: MMVRQMKEDAKGKSEEELAECFRI [TNNC2] 4.3

Note, next up: VHEVLQAVDAGDPAVEACENRRKV [TCF25] 5.35

Note, next up: SPSYGRSRSRSRSRSRSRSRSNSR [SRSF1] 5.43

Note, next up: IEKEEQEKKRKEEEERRRREEEER [ACBD3] 5.66

Note, next up: FWPHLKASNWSTTGFGQGQGYTIN [HDAC6] 2.64

Note, next up: HSQNLAKQQRNEVSFVIHNLPIIA [SEPHS2] 2.25

---

Readings of protein stability index for the listed sequences
Test: protein stability index of a GFP-peptide fusion (GPS, HEK-293T) (PSI 1-6); higher = more stable
Details: treatment: DMSO; c terminus: a fixed tail appended

Worked cases, answers included:
RRCRRCVCALCPVLGAHRGHPVGL [TRIM14] ... 2.54
AGEREDLWAGSKGKEFGYFPRDAV [MIA2] ... 3.47
DKLKIDLLPDGRHAVVEVEDVPLA [TAF7L] ... 4.61

What does the data say about its protein stability index? Entry: TKLLNDEDQVVVNKAAVMVHQLSK [CTNNB1] 3.6

Note, next up: VTSFPDADAFHHQVHDDDLLSSSE [EMD] 5.38

Note, next up: LLFEYPESSSPARGIAIVSVLVIL [KCNA4] 2.92

Note, next up: DYAHGFGNISGEFWLGNEALHSLT [TNXB] 2.43

Note, next up: SALPFITYLENKGHRYPCFFNTLH [POP5] 2.34

Note, next up: KYIHRMMQIEFIKQGSMNFRFIPV [TRAF3IP2] 3.66

Note, next up: YDFDTQYAFVGDYSGQITLLKLEQ [WDFY1] 2.19

Note, next up: FQLNQDKMNFSTLRNIQGLFAPLK [POMP] 2.54

Note, next up: TAAPPPPPPSRPSVAVPPPPPNRM [WASL] 4.82

Note, next up: YSVARQFNLTPPICEQAEYHMFQR [KCNAB2] 2.64

Note, next up: IGGFTALHYAAMHGRARIARLMLE [ASB7] 2.15

Note, next up: RISFCADDKTDKRIFTFICKDSES [GULP1] 3.52

Note, next up: VKESGERKVTDSISKSLELCNEIS [DLC1] 4.52

Note, next up: FLANLHITALLNVSRRTSEACMTH [DUSP5] 3.13

Note, next up: QGITMGCWDMYRHDIDCQWVDITD [LOXL2] 2.4

Note, next up: RRNSSSSMSSRLSIYDNVPGSILY [DLC1] 2.75

Note, next up: DTERLDDFHLSIHSDMAAIVKAMA [DVL3] 2.36

Note, next up: DLDLIQSTPFKPLALKTPPRVLTL [MFF] 2.31

Note, next up: PISVHCSAGVGRTGVFITLSIVLE [PTPRD] 2.96

Note, next up: SMVDLTSVTLEDVTPKKSPPPKTN [FAN1] 5.06

Note, next up: RRFGAVACGVAMELYVFGGVRSRE [GAN] 3.04
